Ref: the supplement of paper PMC6757056

Form field: normalized RNA/DNA level with ligand (log10) (one value per entry).
B1: library; a variant is named by its letters at N, in order (parent)
chain: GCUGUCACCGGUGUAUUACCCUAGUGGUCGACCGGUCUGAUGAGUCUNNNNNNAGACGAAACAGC

Variants of: B1
Experiment: normalized RNA/DNA level with ligand (relative to sTRSVctl = 100) (log10 (% of sTRSVctl)); ligand: hypoxanthine (xanthine aptamer); higher = less ribozyme self-cleavage, higher mRNA level
Conditions: ligand concentration (+) RNA-Seq: 5 mM, HEK293T, reporter: mCherry (pCS4076), ligand present: yes
Please reply with the value in numeric form only.

- MUTATION_STRING: "UCGGGA"
  TEST_RESULT: 1.82
- MUTATION_STRING: "UUCCAU"
  TEST_RESULT: 1.97
- MUTATION_STRING: "AGACGG"
  TEST_RESULT: 1.81
- MUTATION_STRING: "UAAGCG"
  TEST_RESULT: 1.91
- MUTATION_STRING: "CUAUGC"
  TEST_RESULT: 1.99
- MUTATION_STRING: "UAGAAG"
  TEST_RESULT: 1.86
- MUTATION_STRING: "ACACCU"
  TEST_RESULT: 1.95
- MUTATION_STRING: "UAUGGA"
  TEST_RESULT: 1.91
- MUTATION_STRING: "AUACCG"
  TEST_RESULT: 1.84
- MUTATION_STRING: "UGAAAG"
  TEST_RESULT: 1.86

// ACUGUA : normalized RNA/DNA level with ligand (log10) value = 1.93

Lab note: measured normalized RNA/DNA level with ligand (log10) of GAGUGC was 1.88

Entry AAAGUU — recorded normalized RNA/DNA level with ligand (log10) = 1.91

The measured normalized RNA/DNA level with ligand (log10) associated with UUGUUC reads 2.01

// recorded normalized RNA/DNA level with ligand (log10) for UUUGAC : 1.93

GGAAGU yielded normalized RNA/DNA level with ligand (log10) of 1.91
